- Assayed target: Follistatin (Homo sapiens)
- Assay comment: FST protein binding to printed compounds – biochemical, small-molecule microarray, 635/667 nm fluorescence, primary screen (AID 1132)
- Measurement setup: 635 nm fluorescence, higher = more signal
Param threshold (1) applies to composite z-score; output Satisfied when value >= threshold, Not satisfied when value < threshold.

compound=NC(=O)[C@@H]1[C@H]2C(=O)O[C@H](c3ccccc3)[C@H](c3ccccc3)N2[C@H](c2ccc(OCCO)cc2)[C@@]12C(=O)Nc1ccc(C#CC3=CCCCC3)cc12 assigned_class=Satisfied
compound=[N-]=[N+]=Nc1ccccc1[C@H]1OC(c2ccc(OCCCO)cc2)=N[C@@]1(Cc1ccccc1)C(=O)N1CCOCC1 assigned_class=Satisfied
compound="O=C1OCC=C[C@H]2OC34C=CCN(Cn5nnc6ccccc65)C(=O)[C@H]3N(CCCCCO)C(=O)[C@@H]4[C@@H]12 (some centres undefined)" assigned_class="Not satisfied"
compound=O=C1N(CCS(=O)(=O)c2ccccc2)c2ccccc2[C@@H]2OC(c3ccc(OCCCO)cc3)=N[C@]12Cc1ccccc1 assigned_class=Satisfied
compound="CC=CC(O)C1C=CC2C(=O)N(C)C(=O)C2N1N(c1ccccc1)c1ccccc1 (centres undefined)" assigned_class="Not satisfied"
compound=COCCCNC(=O)[C@@]1(Sc2ccc(C)cc2)CC(=O)N(Cc2ccccc2Cl)[C@@H]1c1ccc(CO)cc1 assigned_class=Satisfied
compound=O=C(NCc1ccccc1)[C@@H]1c2ccccc2C(=O)N(C2Cc3ccccc3C2)[C@H]1c1ccc(CO)cc1 assigned_class="Not satisfied"
compound=C=CCNC(=O)[C@H]1[C@@H]2C(=O)O[C@@H](c3ccccc3)[C@@H](c3ccccc3)N2[C@@H](c2ccc(OCCO)cc2)[C@]12C(=O)Nc1ccc(C#CCC(C(=O)OC)C(=O)OC)cc12 assigned_class="Not satisfied"
compound=COc1ccc(C#Cc2ccc3c(c2)[C@]2(C(=O)N3)[C@H](c3ccc(O)cc3)N3[C@H](c4ccccc4)[C@H](c4ccccc4)OC(=O)[C@H]3[C@@H]2C(=O)N2CCc3cc(OC)c(OC)cc3C2)cc1 assigned_class=Satisfied
compound=COCCCNC(=O)[C@]1(Cc2ccccc2)N=C(c2ccc(OCCCO)cc2)O[C@@H]1c1ccccc1CN=[N+]=[N-] assigned_class=Satisfied
compound=COc1ccc(NC(=O)O[C@H]2[C@H](OC(=O)c3cc4ccccc4[nH]3)[C@@H](OC(=O)c3cc4ccccc4[nH]3)[C@@H](OC)O[C@@H]2CO)cc1 assigned_class="Not satisfied"

====

- Test system: Lefty1
- Assay comment: Lefty1 protein binding to printed compounds – biochemical, small-molecule microarray, 635/667 nm fluorescence, primary screen (AID 1139)
- Measurement setup: fluorescence 635/667, higher = more signal
List of composite z-score values.
Measured property: composite z-score

molecule="CCN(CC)c1ccc(N2CC=CC34O[C@@H]5C=CCOC(=O)[C@@H]5[C@H]3C(=O)N(CCCCCCO)[C@@H]4C2=O)cc1 (stereo partly drawn)" assay_value=0.436
molecule=CCOC(=O)C[C@H]1[C@H](OC(=O)c2ccc(-c3ccccc3)cc2)[C@@H](NC(=O)c2ccccc2)c2cc(OCCCO)ccc2N1C(=O)c1ccc2ccccc2n1 assay_value=-0.329
molecule=COc1ccc([Si](C)(C)[C@@H]2[C@@H](CC(=O)N3Cc4ccccc4C[C@H]3CO)O[C@]3(C(=O)N(Cc4cccc(N5CCC5=O)c4)c4ccccc43)[C@H]2C)cc1 assay_value=1.02

====

- Assay comment: changes in parasitized red cell lysis, either direction – P. falciparum Indochina, OD700, 3 h, PSAC antagonist project, primary screen (AID 1156)
- Measurement setup: P. falciparum-infected erythrocytes, osmotic lysis, higher = more signal, called active from +8 up or from −8 down
Param threshold (1) applies to z-score; output t when value >= threshold, f when value < threshold.

compound=COC(=O)c1c(CC[C@@H](CO)NC(=O)NCCc2c[nH]c3ccccc23)oc(C(=O)Cc2ccccc2)c1C(=O)OC assigned_class=f
compound=COc1ccc([Si](C)(C)[C@@H]2[C@@H](CCn3cc(CCO)nn3)O[C@]3(C(=O)N(Cc4cccc(N5C(=O)c6cccc7cccc5c67)c4)c4ccccc43)[C@H]2C)cc1 assigned_class=t
compound=CCCC=C(CCC)[C@@H](NC(=O)OCC(C)C)c1ccccc1 assigned_class=f
compound=C=C(CCCC)C(=O)CC[C@H](OC(=O)c1cccnc1)c1ccc(OCCO)cc1 assigned_class=t
compound=COc1ccc(CCNC(=O)[C@@]2(c3ccc([N+](=O)[O-])cc3)CC(=O)N(CC34CC5CC(CC(C5)C3)C4)[C@@H]2c2ccc(CO)cc2I)cc1 assigned_class=t
compound=COc1ccc([Si](C)(C)[C@H]2[C@H](CCO)O[C@@]3(C(=O)N(Cc4ccccc4)c4ccc(N5CCCCC5=O)cc43)[C@@H]2C)cc1 assigned_class=t
compound="O=C1NC(=O)C2C1C=CC(C(O)c1ccc(I)cc1)N2Nc1ccc(Cl)cc1Cl (configuration not stated)" assigned_class=f

====

- Assay comment: small molecules captured by biotinylated probe aFST – biochemical, small-molecule microarray, fluorescence 635/667, stem cell growth factor project, primary screen (AID 1086);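 note: score merges 667 nm fluorescence with signal-to-noise of each printed compound spot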
- Measurement setup: higher = more signal
Each record's class is read off its composite z-score using these ranges: low group = under -0.2, middle group = from -0.2 up to 0.5, high group = 0.5 and over

compound=COCCOC(=O)N1C(=O)[C@@]2(c3cc(C#CC4=CCCCC4)ccc31)[C@H](c1ccc(OCCO)cc1)N1[C@H](c3ccccc3)[C@H](c3ccccc3)OC(=O)[C@H]1[C@@H]2C(=O)N1CCc2cc(OC)c(OC)cc2C1 assigned_class="high group"
compound="O=C1OCC=C[C@H]2OC34C=CCN(Cn5nnc6ccccc65)C(=O)[C@H]3N(CCCCCO)C(=O)[C@@H]4[C@@H]12 (some centres undefined)" assigned_class="low group"
compound=CC(=O)NCCCC[C@@H]1NC(=O)[C@H]2C[C@@H](C(=O)NCCCCCNC(=O)CS)[C@@H](c3ccc(O)cc3)N2C1=O assigned_class="low group"
compound=O=C1O[C@@H](c2ccccc2)[C@@H](c2ccccc2)N2[C@@H](c3ccccc3OCCO)[C@]3(C(=O)Nc4ccccc43)[C@@H](C(=O)O)[C@H]12 assigned_class="middle group"
compound="O=C1OCCC/C=C\\[C@H]2OC34C=CCN(c5ccc6ccccc6c5)C(=O)[C@H]3N(CCCCCO)C(=O)[C@@H]4C12 (some centres undefined)" assigned_class="low group"
compound=C=CC[C@@]1(C(=O)N2CCCCC2)N=C(c2ccc(OCCCO)cc2)O[C@@H]1c1ccccc1N=[N+]=[N-] assigned_class="high group"
compound=COC(=O)c1c(CC[C@@H](CO)NC(=O)N[C@H](Cc2ccccc2)Cn2cc(-c3ccccn3)nn2)oc(C(C)=O)c1C(=O)OC assigned_class="low group"
compound=COCC(=C=CC[C@H](O)c1cccc(OCCO)c1)C[C@H](O)c1cc(Cl)cc(Cl)c1O assigned_class="middle group"
compound=COC(=O)[C@]1(CCC(=O)OC(C)(C)C)N=C(c2ccc(OCCCO)cc2)O[C@@H]1c1ccccc1 assigned_class="middle group"
compound="COc1ccc(C(O)C2C=CC3C(=O)N(C)C(=O)C3N2NC(=O)OC(C)(C)C)c2ccccc12 (centres undefined)" assigned_class="high group"
compound=O=C(NC1CC1)[C@@H]1c2ccccc2C(=O)N(C2Cc3ccccc3C2)[C@H]1c1ccc(CO)cc1 assigned_class="middle group"
compound=O[C@@H](Cc1ccccc1)[C@@H](/C=C/C1CC1)NCc1cccc(Cl)c1 assigned_class="low group"
compound=CO[C@H]1O[C@H](CO)[C@@H](OC(=O)Nc2ccccc2-c2ccccc2)[C@H](OC(=O)Nc2ccccc2-c2ccccc2)[C@@H]1OC(=O)Nc1ccccc1-c1ccccc1 assigned_class="high group"
compound=O=C1O[C@@H](c2ccccc2)[C@@H](c2ccccc2)N2[C@@H](c3ccc(OCCO)cc3)[C@]3(C(=O)Nc4ccc(C#CCCO)cc43)[C@@H](C(=O)NC[C@H](O)c3ccccc3)[C@H]12 assigned_class="middle group"

====

List of z-score values.
- Assay comment: S. pombe growth modifiers, basal conditions – strain 972, OD600, 24 h, no modulator, primary screen (AID 1090);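 note: basal condition with compound alone and no growth modifier present; test concentration not given here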
- Measurement setup: S. pombe 972 growth, higher = more signal, called active from +8 up or from −8 down
Active and inactive are the calls of the source.
Measured property: z-score

compound=CN(C)C(=O)[C@]1(Cc2ccccc2)N=C(c2ccc(OCCCO)cc2)O[C@@H]1c1ccccc1N=[N+]=[N-] measured_property=z-score assay_value="-0.655 (inactive)"
compound=COCCOC(=O)N1C(=O)[C@@]2(c3ccccc31)[C@H](c1ccc(OCCO)cc1)N1[C@H](c3ccccc3)[C@H](c3ccccc3)OC(=O)[C@H]1[C@@H]2C(=O)N1CCc2cc(OC)c(OC)cc2C1 measured_property=z-score assay_value="0.856 (inactive)"
compound=COc1ccc(C(=O)Nc2ccc(CN3C(=O)[C@]4(O[C@H](CC(=O)N5CCC[C@H]5CO)[C@@H]([Si](C)(C)c5ccc(OC)cc5)[C@@H]4C)c4ccccc43)cc2)cc1 measured_property=z-score assay_value="0.173 (inactive)"
compound="NC(=O)N1C(=O)C2C(C1=O)C1C=C(CCCO)C2C(C2CC2)N1Cc1cc2c(cc1Br)OCO2 (stereo not drawn)" measured_property=z-score assay_value="-0.435 (inactive)"
compound=COC(=O)[C@H](Cc1ccccc1)N[C@H](/C=C/C1CC1)[C@@H](O)Cc1ccccc1 measured_property=z-score assay_value="-5.75 (inactive)"
compound=CC(=O)NCCCC[C@@H]1NC(=O)[C@H]2C[C@@H](C(=O)O)[C@@H](c3ccc(O)cc3)N2C1=O measured_property=z-score assay_value="-2.62 (inactive)"
compound=CC(C)(C)OC(=O)CC[C@@]1(C(=O)N2CCCCC2)N=C(c2ccc(OCCCO)cc2)O[C@@H]1c1ccccc1 measured_property=z-score assay_value="-0.76 (inactive)"
compound="CC(=O)n1cc(C(O)C2C=CC3C(=O)NC(=O)C3N2Nc2ccccn2)c2ccccc21 (stereo not drawn)" measured_property=z-score assay_value="0.777 (inactive)"
